All values here come from ChEMBL document CHEMBL3885861.

Species on record: Rattus norvegicus
protocol_notes: Open TG-GATES - Regimen: Daily Repeat
Format: toxicity, organism-based, Sprague-Dawley
Parameters: regimen Daily Repeat, gender Male, age 6 weeks
measurement_parameters: in vivo, po, 300 mg/kg, 72 h, tissue Blood, route gavage, dose level Middle, time 3 day
measured_endpoint: RBC (x10_4/ul)
Report as a plain number; the unit x10_4/ul is understood.

As a guide, the following entries are already answered.
compound	unit_descriptor	observed
CC(S)C(=O)NCC(=O)O (centres undefined)	x10_4/ul	639.8
CCCCNC(=O)NS(=O)(=O)c1ccc(C)cc1 [TOLBUTAMIDE]	x10_4/ul	661

Query: Which RBC is reported for this compound? CC(=O)[C@@]1(O)CC[C@H]2[C@@H]3C=C(Cl)C4=CC(=O)CC[C@]4(C)[C@H]3CC[C@@]21C
Response: 684

Query: Given the entry O=C(O)c1ccccc1Nc1ccccc1 , report its measured RBC.
Response: 639.6
